Method: E. coli growth modulation, two-sided OD650, primary screen, E. coli filamentation project, strain DRC41, 24 h (AID 1093);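 further: MC1000 strain lacking acrAB efflux and sulA so SOS filamentation is blocked; test concentration not given here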
Experimental parameters: OD650, 24 h, higher = more signal, called active from +8 up or from −8 down
Reported values of z-score for individual entries
Answer with a bare number; do not write a unit.

Known z-score results, listed for orientation:
Compound	Measured value
C=CC[C@]1(C(=O)NCC(O)CO)N=C(c2ccc(OCCCO)cc2)O[C@H]1c1ccccc1 (some centres not stated)	2.05
COc1ccc([Si](C)(C)[C@H]2[C@H](CC(=O)N(CCO)Cc3ccccc3)O[C@@]3(C(=O)N(C)c4ccccc43)[C@@H]2C)cc1	1.41
C[C@@H]1NC(=O)[C@H](Cc2ccccc2)NC(=O)[C@@]23C(=O)N[C@@H](Cc4ccccc4)C2[C@H](C)[C@@]2(C)O[C@H]2C3/C=C/C/C=C\CNC1=O (some centres not stated)	-1.38
CN(C)C(=O)[C@@]1(Cc2ccccc2N=[N+]=[N-])N=C(c2ccc(OCCCO)cc2)O[C@H]1c1ccccc1CN=[N+]=[N-]	0.859
CC(C)=C1C(=O)C(c2ccccc2)=C2CN3C(=O)N(CCc4ccccc4)C(=O)[C@]3(Cc3ccccc3)[C@H]21	-0.901

The measured z-score associated with "CC(C)(C)OC(=O)CC[C@]1(C(=O)N2CCCCC2)N=C(c2ccc(OCCCO)cc2)O[C@H]1c1ccccc1" reads 0.726

The measured z-score associated with "CCCC[C@H]1OB(O)C[C@H]2C1=C(COC)C[C@H]1C(=O)N(Cc3ccccc3)C(=O)[C@H]12" reads 2.71
